Listed next: entries and their corresponding pIC50.
tested on: Leishmania donovani; test: GSK_TCAKS: pIC50 Leishmania donovani Imaging: Infected Macrophages. Assay plates (384-well) were prepared by adding 250nL of compound to each well. For single shot assay, the final compound concentration was 5 uM. […] Automated image analysis was performed with a script developed on Acapella High Content Imaging and Analysis Software (PerkinElmer). Output: Percent of infected macrophage cells were reported for each well.; assay type: functional, organism-based, Homo sapiens; conditions: THP-1
Recall that pIC50 is obtained by taking minus log10 of the concentration measured in molar.

Below, 2 compounds whose answers are already recorded.
compound: O=C(c1ccc(Cl)cc1)c1ccc(OC(=O)N2CCOCC2)cc1
value: 5.30
//
compound: COc1ccc(-c2cnc(NC(=O)c3cc(-c4ccccn4)n[nH]3)n2C)cc1
value: 6.00

Req: What value of pIC50 has been recorded for this entry: "NC(=O)c1ccccc1Nc1nc(NC2CCCCC2)nc2[nH]ccc12"
Resp: 4.90

Req: For the compound shown here, "Cc1nc(C(=O)Nc2ccc3c(c2)OCO3)nn1-c1ccc(Cl)cc1" , give the reported pIC50.
Resp: 5.70

Req: What pIC50 value was documented for this compound, "Cc1cc(C)n(-c2nc(NC(C)C)nc(NC(C)(C)C)n2)n1" ?
Resp: 5.30

Req: Quick one: pIC50 of "Cc1cc(Nc2cc(C3CC3)[nH]n2)nc(N2CCCC2)n1" ?
Resp: 6.80

Req: Need pIC50 of "O=C(Nc1nc(-c2ccccn2)cs1)c1ccc(S(=O)(=O)N2CCCCC2)cc1" , thanks.
Resp: 5.90

Req: Any idea what pIC50 was measured for "CN(C)S(=O)(=O)c1ccc(-c2cnc(N)c(-c3nc4ccc(F)cc4[nH]3)c2)cc1" ?
Resp: 5.80

Req: Consider the compound shown here: "NC(=O)c1cc(F)ccc1Nc1nc(N[C@H]2CC[C@H](O)CC2)ncc1Cl" What is its recorded pIC50?
Resp: 5.90

Req: Return reported pIC50; argument: COc1cc(OC)cc(C(NS(=O)(=O)c2ccc(Cl)c(C(F)(F)F)c2)c2nccn2C)c1 (stereo unspecified)
Resp: 5.20

----------
assay: GSK_TCAKS: pIC50 HepG2 human cell line viability assay using luminiscence. […] Seeding density was checked to ensure that new mono-layers were not more than 50% confluent at the time of harvesting. Cell suspension was added to 500 mL of the same medium at a final density of 1.2 * 10^5 cells/mL. This cell suspension was dispensed (25 uL, 3000 cells per well) into 384-well clear-bottom plates using a Multidrop Combi dispenser. Prior to addition of the cell suspension, the screening compounds (250 nL) were pre-dispensed into the plates with an Echo liquid handler. Plates were incubated for 48 h at 37C, 5% CO2. After incubation, plates equilibrated at room temperature for 30 min before proceeding to develop the luminescent signal. The signal developer, CellTiter-Glo Reagent, was allowed to equilibrate at room temperature for 30 min and added to the plates (25uL per well) using a Multidrop Combi dispenser. Plates were left for 10 min at room temperature for stabilization and then read using a ViewLux.; assay type: toxicity, cell-based
// values below are reported IC50 at 48 h

Recorded results for 5 compounds are shown here.
compound: O=[N+]([O-])c1cccc(Nc2cncc(-c3ccccc3CO)c2)c1
IC50 at 48 h: > 100 µM
//
compound: Cc1ccc(NC(=O)c2ccnc(N3CCCC3)c2)cc1-c1cc(C(N)=O)ccc1C
IC50 at 48 h: > 100 µM
//
compound: Cc1nc(C(=O)Nc2ccc3c(c2)OCO3)nn1-c1ccc(F)cc1
IC50 at 48 h: > 100 µM
//
compound: CCOc1ccc(NC(=O)C=Cc2ccc(CC)o2)cc1
IC50 at 48 h: 79.4 µM
//
compound: CCOc1ccc(CC(=O)N2c3ccccc3CC2C(=O)NC)cc1 (stereo not drawn)
IC50 at 48 h: > 100 µM

Req: Quick check: IC50 at 48 h of CNc1cc(C)nc(C2CN(C(=O)c3n[nH]c4ccccc34)CCO2)c1 (stereo not drawn) ?
Resp: > 100 µM

Req: Reported IC50 at 48 h, compound "CN(C)S(=O)(=O)c1cccc(C(=O)Nc2nc(-c3ccccn3)cs2)c1" : ____
Resp: > 100 µM

Req: Give its IC50 at 48 h value. Item: COc1ccc(C2C3CCCCC3(O)CCN2CC(=O)Nc2ccc(Cl)cc2Cl)cc1 (stereo not drawn)
Resp: > 100 µM

Req: Could you tell me which IC50 at 48 h is on file for "O=C(Nc1ccc(S(=O)(=O)N2CCCC2)cc1)c1ccc([N+](=O)[O-])s1" ?
Resp: 6.31 µM

----------
tested on: Leishmania donovani; experiment: GSK_TCAKS: pIC50 Leishmania donovani viability assay using fluorescence intensity. Assay plates (1536-well) were prepared by adding 30nL per well of compound. For single shot assay, the final compound concentration was 5uM. […] Briefly, eGFP LdBOB axenic amastigotes were harvested, fixed and counted in a CASY cell counter (Roche-Applied Science). A final concentration of 1.5 * 10^5 cells per well were prepared in amastigote media containing 500 U/mL penicillin/streptomycin (Invitrogen) and 6uL was dispensed to each experimental well using a Multidrop Combi dispenser (Thermo Scientific). 6uL of assay media was dispensed to control columns used as reference for 100% compound response. Following incubation for 72 h at 37C, 5% CO2, 2 uL of resazurin was added to each well at a final concentration of 0.5 mM in phosphate buffered saline (PBS) with IGEPAL (Sigma-Aldrich), 0.05% (v/v).; format: functional, organism-based
Quick reference for IC50 among some compounds
Give your result in µM as a bare value.

As a guide, the following entries are already answered.
compound: Cc1cc(=O)n2nc(Oc3ccc(C#N)cc3Cl)sc2n1
IC50, µM: 12.6
--
compound: CCCc1nc2nc(N)nc(N)c2cc1CC
IC50, µM: 2
--
compound: Cc1cc2cncn2c(C2CCCCN2C(=O)c2cccs2)n1 (stereo unspecified)
IC50, µM: 0.398
--
compound: O=C(CSc1nnc(-c2ccc3c(c2)OCO3)o1)N(Cc1ccco1)CC(F)(F)F
IC50, µM: 15.8
--
compound: CC(C)CC(=O)NC(c1cccs1)c1ccc2cccnc2c1O (stereo unspecified)
IC50, µM: 6.31
--
compound: CCCc1cc(C(=O)Nc2ncc(-c3cccc(Br)c3)n2C)[nH]n1
IC50, µM: 6.31
--
compound: Cc1ccc(Nc2nc(C3CCCN3Cc3cc[nH]n3)cs2)nc1 (stereo unspecified)
IC50, µM: 12.6
--
compound: O=C(N[C@H](CO)c1ccccc1)c1ccc(-c2c[nH]c3nccc(C(F)(F)F)c23)s1
IC50, µM: 31.6

Now examine the next entry.
Req: Dear colleague, I am looking for the recorded IC50 of the following compound: O=c1cc(NCCCNC2CCOc3c(I)cc(Cl)cc32)[nH]c2ccccc12 (stereo unspecified)
Resp: 31.6

----------
test system: Trypanosoma brucei brucei; assay: GSK_TCAKS: pIC50 Trypanosoma brucei viability assay using luminiscence. Assay plates (1536-well) were prepared. T. brucei cultures were harvested and counted in a CASY cell counter. A parasite suspension was prepared at a final concentration of 5 * 10^4 cells/mL in complete HMI9 medium and 6uL was dispensed to all wells containing compounds using a Multidrop Combi dispenser. 6uL of HMI9 media with 0.4% DMSO were dispensed to control columns. Plates were incubated for 24 h at 37C, 5% CO2 then tempered for 10 min at room temperature. ATP content was quantified by adding 4 uL of CellTiter-Glo Reagent (Promega) according to the manufacturer's instructions. Luminescence was measured using a ViewLux.; format: functional, organism-based; conditions: Lister 427, CASY
IC50 values for the molecules below.
Please give a number only; it is taken to be in nM.

molecule: O=C(NCCc1csc(-c2ccc(F)cc2)n1)c1cccs1
target-entity: Trypanosoma brucei brucei
units: nM
value: 200
--
molecule: CCOc1ccc(CC(=O)N2c3ccccc3CC2C(=O)NC)cc1 (stereo unspecified)
target-entity: Trypanosoma brucei brucei
units: nM
value: 501
--
molecule: O=C(NCC1CCCCC1)c1cnns1
target-entity: Trypanosoma brucei brucei
units: nM
value: 1260
--
molecule: CC(C)(C)C(=O)Nc1cc(C2CC2)nn1-c1nc2c(c(=O)[nH]1)CCCC2
target-entity: Trypanosoma brucei brucei
units: nM
value: 200
--
molecule: Cc1cc(C)cc(NS(=O)(=O)c2cc(-c3cc(C)n[nH]3)ccc2C)c1
target-entity: Trypanosoma brucei brucei
units: nM
value: 2000

Req: What value of IC50 has been recorded for this entry: "Cc1nc2c(-c3cccs3)c(C)nn2c(NCCO)c1C"
Resp: 200

Req: Endpoint output: IC50 of "O=C(CN(Cc1ccccn1)Cc1ccccn1)NC1Cc2ccccc2C1" . Value?
Resp: 12600

Req: Which IC50 reading was recorded for the molecule "COc1ccc(C(=O)NC2CCN(CCn3c(=O)ccc4ncc(F)cc43)CC2)cc1Cl" ?
Resp: 251

----------
As shown below, each of these compounds has a reported pIC50 value.
tested on: Trypanosoma brucei brucei; experiment: GSK_TCAKS: pIC50 Trypanosoma brucei viability assay using luminiscence. Assay plates (1536-well) were prepared. T. brucei cultures were harvested and counted in a CASY cell counter. A parasite suspension was prepared at a final concentration of 5 * 10^4 cells/mL in complete HMI9 medium and 6uL was dispensed to all wells containing compounds using a Multidrop Combi dispenser. 6uL of HMI9 media with 0.4% DMSO were dispensed to control columns. Plates were incubated for 24 h at 37C, 5% CO2 then tempered for 10 min at room temperature. ATP content was quantified by adding 4 uL of CellTiter-Glo Reagent (Promega) according to the manufacturer's instructions. Luminescence was measured using a ViewLux.; format: functional, organism-based; conditions: Lister 427, CASY
Scale: pIC50 equals -log10([C]), with [C] in mol/L.

compound: COc1ccc(-c2csc(NC(=O)c3ccc([N+](=O)[O-])s3)n2)cc1OC
value: 6.20
//
compound: CCn1c(-c2nonc2N)nc2c([C@@H](C)O)ncc(O[C@H](CN)c3ccccc3)c21
value: 6.10
//
compound: CCN(Cc1nc2ccc(C(=O)N3CCN(c4ncccn4)CC3)cc2[nH]1)C1CCCc2cccnc21 (stereo not given)
value: 5.30

Req: Item CC(c1cc(Cl)cc(Cl)c1)N(C)c1ncc2c(N)nc(N)nc2n1 (stereo not given) with Trypanosoma brucei brucei - pIC50?
Resp: 4.50

Req: Given the entry "Cc1nc(N2CCC(C(=O)N3CCC(O)(c4cccnc4)CC3)CC2)nc2ccc(C(C)C)cc12" , what pIC50 was observed with Trypanosoma brucei brucei?
Resp: 4.50

Req: # returns recorded pIC50 (system: Trypanosoma brucei brucei) for "Cc1cc(-c2cccc3ccccc23)nc2nc(N)nc(N)c12"
Resp: 4.70

Req: Notebook entry, Trypanosoma brucei brucei assay: pIC50 of "Cc1ccc(S(=O)(=O)Nc2ccc(CN3CCN(C(=O)c4cccc(C#N)c4)CC3)cc2)cc1" = ?
Resp: 6.50
